Entry source: paper PMC9054915

Assay Details: Human mass balance and absolute bioavailability study (NCT02390492)
Test Context: human, in vivo, oral, 200 mg

| Structure Smiles String | bioavailability, % |
| --- | --- |
| CC(C)NC[C@@H](C(=O)N1CCN(c2ncnc3c2[C@H](C)C[C@H]3O)CC1)c1ccc(Cl)cc1 | 34 |

---

Assay Details: Human mass balance and absolute bioavailability study (NCT02390492)
Test Context: human, in vivo, intravenous, 0.08 mg

| Structure Smiles String | Vd, L/kg |
| --- | --- |
| CC(C)NC[C@@H](C(=O)N1CCN(c2ncnc3c2[C@H](C)C[C@H]3O)CC1)c1ccc(Cl)cc1 | 39.1 |
